Procedure Text: inhibitors of TNFa-induced NFkB p65 translocation, primary screen, imaging, HUVEC, MLSMR starter and 10KST1 sets (AID 438);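 further: compound added about 3h40 before a 20 min TNFalpha stimulation; signal is the nuclear over cytoplasmic p65 intensity ratio per well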
Stated Conditions: HUVEC TNFa-induced p65 nuclear translocation; at 2 µM, stronger effect = higher value, 0% TNFa-plus-vehicle, 100% no-TNFa wells
Activity calls are given as the source filed them.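 How the source made its calls: active means inhibition above 20% together with a positive visual image hit; inconclusive means visual image hit but inhibition not above 20%; inactive means no visual image hit.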
Experimental Readout: inhibition

# Molecule, Experimental Readout, Endpoint Value
measured = [
    ("O=C(Nc1ncc(Cc2ccccc2)s1)C1CCCO1 (configuration not stated)", "inhibition", "-3.3% (inactive)"),
]

Provide inhibition for all items below, preserving their order.
1. COc1cccc(N2CCN(C(=O)C3C4C=CC5(CN(Cc6ccccc6Cl)C(=O)C35)O4)CC2)c1 (configuration not stated)
2. O=C(c1ncn[nH]1)N1CCN(c2nc(-c3ccccc3)cs2)CC1

-11.6% (inactive)
2.5% (inactive)

Give me inhibition for each of these molecules, listed below.
1. O=C(Nc1ccccc1C(=O)N1CCN(c2ccccc2)CC1)c1ccco1
2. COc1ccc2nc(CC(C)(C)CC(=O)O)c[n+]([O-])c2c1
3. O=C(CCn1cccc1)N1CCc2ccccc21
4. O=C(O)CC1NC(=O)N(c2ccccc2)C1=O (configuration not stated)

-5.1% (inactive)
-1% (inactive)
6.5% (inactive)
-4.6% (inactive)
